# Tested on: ATP;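 note: ATP exposure 15 min at 22 °C before imaging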
# protocol.text: switch fluorescence ratio, 500 uM ATP over buffer (Cy3 cluster intensity, sum of 5 cycles each) (fold (ratio)); higher = stronger signal-on switching upon ATP binding; sequences stand for … in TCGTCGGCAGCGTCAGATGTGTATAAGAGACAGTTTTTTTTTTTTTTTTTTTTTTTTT…TC
# condition.label: aptamer strand: ATP DNA aptamer (quencher-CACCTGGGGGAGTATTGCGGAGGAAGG + anchor), 100 nM annealed; ATP concentration: 500 uM
quantity: switch fluorescence ratio

• GGGCGGATTT = 1.02
• CCCGGGTATG = 1.03
• TCAATCTTCT = 1.03
• TGTGGCGTAT = 1.01
• AAGTTATGGC = 0.96
• GTTTCGGGCT = 1.01
• TCGGTTGGGT = 0.984
• CGAGGCCGGG = 1.01
• GGTTTCAATA = 1.01
• TTAGTTTCTG = 0.984
• GCCGGGGCAA = 1.33
• GGGACTGGTA = 1
• ACGTATAGAG = 0.991
• TCGAGTTTGG = 1.01
• TTTGAACGCT = 1.06
• GTTGGTTGGG = 0.975
• TATTGGCTTG = 0.985
• TATTGCCGCA = 1.06
• TGGATATTTT = 0.993
• ATTACGGAAA = 1.74

* * *

# Test system: ATP;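 note: ATP exposure 15 min at 22 °C before imaging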
# protocol.text: switch fluorescence ratio, 500 uM ATP over buffer (Cy3 cluster intensity, sum of 5 cycles each) (fold (ratio)); higher = stronger signal-on switching upon ATP binding; sequences stand for … in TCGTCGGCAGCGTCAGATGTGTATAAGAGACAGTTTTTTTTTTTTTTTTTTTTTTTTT…TC
# condition.label: aptamer strand: ATP DNA aptamer (quencher-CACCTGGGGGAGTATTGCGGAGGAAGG + anchor), 100 nM annealed; ATP concentration: 500 uM
quantity: switch fluorescence ratio

• GATGAGAGGA = 1.03
• AGAGGGCGGA = 1
• AGGGGGCAGG = 1.01
• CTTGTGTACG = 0.965
• GCTATTCGAC = 1.16
• GTGATCCTTC = 1.03
• ATGTTCTCGT = 0.995
• CTTTTACATG = 1
• CGTGCGGGAA = 1
• TAGTCCTATG = 0.969
• ATAGATAGGG = 0.969
• ATATAAGCGG = 1.02
• AGGGGAAAGA = 1.02
• GGCGCTGTGA = 1.01
• CTAGGGTTAT = 1.01
• TAAGTGGGGT = 0.979
• TTTTAGAAGG = 0.98
• ATGGTTCACT = 1.02
• TTAAGCGGAG = 1.01
• GGTGGAGCCC = 0.962
• GGTTATTTGT = 0.992
• ATTCATCATT = 1
• CAGGTTTAAA = 0.992
• TTAAAACGGT = 1.21
• GCTGGGTCTT = 1.03
• GCAGGCCGAG = 1.05
• ATGATTATGA = 1.04
• ATCTAGGGTT = 0.995
• TTGGGTGCTG = 1.01
• ACTAGGTCCG = 1.01
• CTGTGTGTTC = 1.01
• ATCTGGATGG = 0.996
• TCCAGTAGTT = 0.982
• GGGAATGTAT = 0.979
• GCAAAAAAAG = 0.96
• CAGTATGTAG = 0.957
• TTCGAGACGG = 0.98
• TACTTACTCG = 1.24
• ATTGGCTGGA = 0.96
• GATAGGGCGC = 1.02
• CTCGTAGGGA = 1.01
• TAAAGGCCGT = 1.01
• GCGGTATATG = 1.01
• TAAGGGGTTA = 0.992
• CCTGGATTTC = 1.01
• AAGGATCTGC = 0.967
• GAGGTATTAT = 0.969
• GTTTTTTTAT = 0.987
• GATGCGGGTG = 1.07
• AGGGCATTCG = 0.979
• ACTCGACCTT = 1.21
• TATGATTTGT = 1
• TGCAGCTAGC = 1.05
• ACGGAACAGC = 1.11
• TAGCGAATAG = 1.19
• TATTATTGGA = 1
• CTCTGGGGGC = 1.1
• GCTAAAATAG = 1.11
• AGATAGGGGG = 1
• TGCGGGGTGG = 1.12
• ATTTTAGATC = 1.01
• CGGGACTTTT = 0.982
• GGGGTAGGTA = 0.96
• TGATGGGTTT = 0.971
• GAGGTTGTGG = 0.973
• GTTTGCGTTG = 0.979
• GCTACTTAAA = 1.03
• CTTTGTAGTA = 0.977
• ATAAAGACTT = 0.976
• TGGCCGTGGC = 1.03
• TTTTAGTAGT = 1.01
• CCAGCGTGCT = 1.11
• TCGTTTTAGC = 1
• GTTTTTCCAT = 1
• CGATGATTGT = 1.03
• TTTTATCAAT = 1
• ATATCTAGTT = 0.989
• TTTGGGTTAC = 1.04
• AGCTAGTATG = 0.993
• AATTCAGTTT = 1.01
• TAGATGTAAC = 0.975
• TTGAATGGTC = 0.979
• CATAGATCTG = 1.01
• TCCAACGGGT = 1.03
• TTTGTGAGGA = 0.996
• TAGGGGCTG = 1.01

* * *

# System: ATP;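 note: ATP exposure 15 min at 22 °C before imaging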
# protocol.text: switch fluorescence ratio, 500 uM ATP over buffer (Cy3 cluster intensity, sum of 5 cycles each) (fold (ratio)); higher = stronger signal-on switching upon ATP binding; sequences stand for … in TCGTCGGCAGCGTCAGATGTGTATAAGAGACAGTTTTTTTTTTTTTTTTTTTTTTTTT…TC
# condition.label: aptamer strand: ATP DNA aptamer (quencher-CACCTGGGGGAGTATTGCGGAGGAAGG + anchor), 100 nM annealed; ATP concentration: 500 uM
quantity: switch fluorescence ratio

• TTCGACCGTG = 0.997
• ACTATTAATC = 1
• AAAACTCCGA = 1.07
• GCGAAATGTG = 1.03
• TCACGAACCT = 1.69
• ATATATGAAA = 0.998
• TTGAAATAG = 0.996
• GGGGGTGCCT = 0.986
• TCAGAGGCTT = 0.996
• GGCCAATAAT = 0.991
• GGTTTTGTGT = 0.962

* * *

# Test system: ATP;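 note: ATP exposure 15 min at 22 °C before imaging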
# protocol.text: switch fluorescence ratio, 500 uM ATP over buffer (Cy3 cluster intensity, sum of 5 cycles each) (fold (ratio)); higher = stronger signal-on switching upon ATP binding; sequences stand for … in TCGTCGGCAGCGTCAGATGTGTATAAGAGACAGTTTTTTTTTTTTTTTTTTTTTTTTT…TC
# condition.label: aptamer strand: ATP DNA aptamer (quencher-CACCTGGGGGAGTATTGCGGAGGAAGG + anchor), 100 nM annealed; ATP concentration: 500 uM
quantity: switch fluorescence ratio

- TCGGTCGTTT: 0.976
- TCTTCGGGGG: 1.07
- AGTTTTTTTC: 1.02
- CACGGGGGGC: 1.02
- TTTCGGACGC: 1.35
- TCGATGGGGG: 0.942
- GCGACGGGAA: 1.34
- CGGGCCGCGG: 1.06
- CAGGAACTTA: 0.984
- TATGGGCCAG: 0.996
- TCGACGATTC: 1.52
- GCTGGTGCTC: 1.06
- TCGGATGTGG: 1.01
- GCTGGGGCTT: 0.991
- ATAGAGGGGT: 1.01
- ATGGAGACGG: 0.979
- GAAAAGGGAG: 0.974
- GGACGGGGTC: 1.01
- TTGATAGTCG: 0.969
- GTATTGGATA: 0.998

* * *

# System: ATP;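 note: ATP exposure 15 min at 22 °C before imaging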
# protocol.text: switch fluorescence ratio, 500 uM ATP over buffer (Cy3 cluster intensity, sum of 5 cycles each) (fold (ratio)); higher = stronger signal-on switching upon ATP binding; sequences stand for … in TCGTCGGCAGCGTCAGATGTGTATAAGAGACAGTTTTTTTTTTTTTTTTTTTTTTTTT…TC
# condition.label: aptamer strand: ATP DNA aptamer (quencher-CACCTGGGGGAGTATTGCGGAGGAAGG + anchor), 100 nM annealed; ATP concentration: 500 uM
Readings of switch fluorescence ratio for the listed sequences
quantity: switch fluorescence ratio

- ATGTTTTATC: 0.994
- ACTTTATTGG: 1.03
- ATAGGGTGCT: 1.04
- TTAACGGTAG: 0.983
- CGGGAGGGGT: 1.06
- GAGGGGACAG: 0.979
- TATAGTGGGG: 1.04
- TTTGAAGTCA: 1
- ATCGGGTCCA: 0.979
- GTTATTTGTT: 1.07
- AGTTTGGGAA: 1
- CCAATCTGAC: 1.3
- ATACGGATGC: 1.06
- TATGGGGTTG: 1.03
- ACTCACGGAG: 1.16
- TACGGGGGAG: 0.995
- TCTCCTTTTT: 1.02
- TACGAATAAT: 1.1
- GTTACTGCGG: 0.98
- CGTGAGGATT: 1
- TAAAATTCGA: 0.978
- CTTTTAACTC: 1.01
- GTTGACAGTG: 1
- TAATTTCAAG: 1.01
- ACGTTAAGTT: 1.1
- CGGCTGGCGG: 0.997
- AATTAGTGCT: 0.994
- TGATCCCGGG: 0.93
- TTCAAAATCT: 1.04
- CGCTGGGATT: 0.991
- AATATTTCCA: 0.974
- TTAACGGGGT: 1.04
- TCATCGTGCC: 0.99
- TCTGGGAGGG: 1.03
- GTTTCTATGG: 0.996
- CCAATAACGC: 1.22
- CACCGGTTCT: 1.03
- CCTTTCCGGG: 1.21
- TTTAGGCGTT: 1.01
- AAATCCTATT: 0.982
- TGGGGAAACC: 2.35
- TTTCTAAGGG: 1.07
- AGGAATAAA: 0.976
